TESTED_ON: T1, FOXL2 (Homo sapiens, UniProt P58012 1-376)
T1 sequence: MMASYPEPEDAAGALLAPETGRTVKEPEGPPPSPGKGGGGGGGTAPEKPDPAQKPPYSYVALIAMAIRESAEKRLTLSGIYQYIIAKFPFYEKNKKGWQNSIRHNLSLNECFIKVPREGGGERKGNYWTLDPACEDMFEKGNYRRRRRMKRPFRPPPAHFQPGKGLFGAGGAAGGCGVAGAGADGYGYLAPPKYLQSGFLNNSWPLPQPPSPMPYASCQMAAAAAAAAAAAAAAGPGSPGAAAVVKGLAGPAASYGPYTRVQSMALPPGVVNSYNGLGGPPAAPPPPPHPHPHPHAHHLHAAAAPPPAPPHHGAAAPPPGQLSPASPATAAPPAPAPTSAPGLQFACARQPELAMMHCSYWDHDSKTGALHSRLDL
ASSAY_REMARKS: pulldown; 37 C; 10 mM HEPES, 140 mM KCl, 25 mM NaCl, 1 mM MgCl2, 0.1 mM CaCl2; equimolar mix, tRNA
SETTINGS: tags: His-SUMO, cleaved
ENDPOINT_LABEL: binding result

Illustrative cases are given below, each with its answer.
BINDER: RF002 DNA (ssDNA) DNA: GGGAGAGTATCCGTTGAGGCTGATCGGACTTTGGTGGTTGGAGGACGGATGGACGGAGGTTTATTAGGCTCGCAGATCGGAAGAGCGTCGTGTAGG
ENDPOINT_LABEL: binding result
RESULT: no binding
--
BINDER: scr50 (ssRNA) RNA: GGGAGAGUAUCCGUUGAGGCUGAGGGACACUCGCUGUUUUCGAAAUUACCCUUUAUGCGCGGGUAUUGAACCAAGAUCGGAAGAGCGUCGUGUAGG
ENDPOINT_LABEL: binding result
RESULT: no binding
--
BINDER: RF000 DNA (ssDNA) DNA: GGGAGAGTATCCGTTGAGGCTGAGAGGTATTAAGAGGCGGAGGCGGAAGGATGGCGGAGGACCGACAGAGAAGAGATCGGAAGAGCGTCGTGTAGG
ENDPOINT_LABEL: binding result
RESULT: no binding
--
BINDER: RF004 DNA (ssDNA) DNA: GGGAGAGTATCCGTTGAGGCTGAATCTGCGACTGGCTGGAGGTGGACGGATGGCTGGAGGCGAAATTGGCTTAAGATCGGAAGAGCGTCGTGTAGG
ENDPOINT_LABEL: binding result
RESULT: no binding
--
BINDER: RF004 (ssRNA) RNA: GGGAGAGUAUCCGUUGAGGCUGAAUCUGCGACUGGCUGGAGGUGGACGGAUGGCUGGAGGCGAAAUUGGCUUAAGAUCGGAAGAGCGUCGUGUAGG
ENDPOINT_LABEL: binding result
RESULT: binds

Ask: Returns the measured binding result for the input binder. Input: RF002 (ssRNA) RNA: GGGAGAGUAUCCGUUGAGGCUGAUCGGACUUUGGUGGUUGGAGGACGGAUGGACGGAGGUUUAUUAGGCUCGCAGAUCGGAAGAGCGUCGUGUAGG
Reply: binds

Ask: Returns the measured binding result for the input binder. Input: RF001 DNA (ssDNA) DNA: GGGAGAGTATCCGTTGAGGCTGACGTCATTTGGTGGATGGCGGAAGGAGGCGGAGGACGGGAAATTCTGGAAAAGATCGGAAGAGCGTCGTGTAGG
Reply: no binding

Ask: Returns the measured binding result for the input binder. Input: RF000 (ssRNA) RNA: GGGAGAGUAUCCGUUGAGGCUGAGAGGUAUUAAGAGGCGGAGGCGGAAGGAUGGCGGAGGACCGACAGAGAAGAGAUCGGAAGAGCGUCGUGUAGG
Reply: binds

Ask: Returns the measured binding result for the input binder. Input: mutRF001 (ssRNA) RNA: GGGAGAGUAUCCGUUGAGGCUGACGUCAUUUGAGUGAGUGAGCGAGAGAGAGUGCGUGAGAGACGAGAGCGUGAGAUCGGAAGAGCGUCGUGUAGG
Reply: no binding

Ask: Returns the measured binding result for the input binder. Input: RF001 (ssRNA) RNA: GGGAGAGUAUCCGUUGAGGCUGACGUCAUUUGGUGGAUGGCGGAAGGAGGCGGAGGACGGGAAAUUCUGGAAAAGAUCGGAAGAGCGUCGUGUAGG
Reply: binds
